- assay target: T1, human SIRPα v1 on CHOK1 cells (human, UniProt P78324 31-504)
- T1 construct: whole, on cells; also called CHOK1-hSIRPα v1; cell surface human SIRPα v1
- T1 sequence (P78324 31-504): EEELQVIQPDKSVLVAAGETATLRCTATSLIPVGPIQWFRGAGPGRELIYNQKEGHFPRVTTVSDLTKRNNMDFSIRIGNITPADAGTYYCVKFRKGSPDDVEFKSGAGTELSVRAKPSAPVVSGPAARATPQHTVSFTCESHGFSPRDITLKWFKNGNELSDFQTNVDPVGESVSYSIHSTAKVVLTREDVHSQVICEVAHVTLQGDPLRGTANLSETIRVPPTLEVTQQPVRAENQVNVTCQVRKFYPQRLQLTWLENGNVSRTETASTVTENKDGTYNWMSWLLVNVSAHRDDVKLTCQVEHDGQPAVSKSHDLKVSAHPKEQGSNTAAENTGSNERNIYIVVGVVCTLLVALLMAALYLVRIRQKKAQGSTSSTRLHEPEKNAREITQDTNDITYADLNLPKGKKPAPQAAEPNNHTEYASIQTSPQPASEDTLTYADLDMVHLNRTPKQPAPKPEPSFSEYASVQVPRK
- measurement notes: FACS, CHOK1 cells stably expressing human SIRPα v1
result type: EC50 (nM)
Write it as a number; the unit nM goes unstated.

These recorded examples may help you get a feel for the data.
binder: Humanized anti-SIRPα antibody hu025.060 (antibody, V domains shown, Humanized from C25) VH: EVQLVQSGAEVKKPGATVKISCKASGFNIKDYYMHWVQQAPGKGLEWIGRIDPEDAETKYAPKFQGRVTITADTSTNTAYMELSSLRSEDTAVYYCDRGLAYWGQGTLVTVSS VL: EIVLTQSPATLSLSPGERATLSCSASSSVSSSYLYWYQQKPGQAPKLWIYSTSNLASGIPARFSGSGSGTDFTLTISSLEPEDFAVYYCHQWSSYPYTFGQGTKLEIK
result type: EC50
experimental result: 0.84

binder: Humanized anti-SIRPα antibody hu025.059 (antibody, V domains shown, Humanized from C25) VH: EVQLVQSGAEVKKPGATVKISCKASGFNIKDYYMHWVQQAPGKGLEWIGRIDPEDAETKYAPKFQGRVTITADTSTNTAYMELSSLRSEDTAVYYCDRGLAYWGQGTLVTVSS VL: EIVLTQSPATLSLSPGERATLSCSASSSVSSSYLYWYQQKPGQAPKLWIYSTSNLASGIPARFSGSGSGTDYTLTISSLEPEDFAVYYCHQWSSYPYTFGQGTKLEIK
result type: EC50
experimental result: 1.05

binder: Anti-SIRPα antibody C25 (antibody, V domains shown, Mouse variable regions; also called 025c; 025) VH: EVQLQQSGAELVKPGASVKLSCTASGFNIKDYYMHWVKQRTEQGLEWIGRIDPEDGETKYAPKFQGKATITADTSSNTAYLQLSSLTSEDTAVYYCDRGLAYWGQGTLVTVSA VL: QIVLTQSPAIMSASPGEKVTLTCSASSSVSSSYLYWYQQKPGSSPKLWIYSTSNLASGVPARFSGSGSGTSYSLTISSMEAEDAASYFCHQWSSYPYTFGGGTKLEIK
result type: EC50
experimental result: 1.22

Q: Requested read-out: EC50. Entry: Humanized anti-SIRPα antibody hu025.021 (antibody, V domains shown, Humanized from C25) VH: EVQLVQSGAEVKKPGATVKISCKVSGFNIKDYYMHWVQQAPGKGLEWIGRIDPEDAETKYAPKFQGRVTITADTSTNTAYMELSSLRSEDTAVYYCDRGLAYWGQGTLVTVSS VL: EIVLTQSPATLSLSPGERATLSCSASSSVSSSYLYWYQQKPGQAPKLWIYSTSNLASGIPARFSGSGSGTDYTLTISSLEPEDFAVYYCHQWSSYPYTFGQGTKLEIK
A: 1.08

Q: Fill blank: measured EC50 of the binder Humanized anti-SIRPα antibody hu025.033 (antibody, V domains shown, Humanized from C25) VH: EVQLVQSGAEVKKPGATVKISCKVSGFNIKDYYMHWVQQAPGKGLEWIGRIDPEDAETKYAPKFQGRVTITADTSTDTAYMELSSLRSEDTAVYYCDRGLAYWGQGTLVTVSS VL: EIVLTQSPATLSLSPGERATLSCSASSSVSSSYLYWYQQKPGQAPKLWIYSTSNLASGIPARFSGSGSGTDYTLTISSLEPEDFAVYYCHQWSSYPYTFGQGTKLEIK is ____.
A: 0.99

Q: Item under review: Humanized anti-SIRPα antibody hu025.023 (antibody, V domains shown, Humanized from C25) VH: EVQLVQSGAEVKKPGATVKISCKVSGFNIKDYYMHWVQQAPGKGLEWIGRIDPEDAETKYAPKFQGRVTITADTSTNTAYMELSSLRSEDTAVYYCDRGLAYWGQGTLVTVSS VL: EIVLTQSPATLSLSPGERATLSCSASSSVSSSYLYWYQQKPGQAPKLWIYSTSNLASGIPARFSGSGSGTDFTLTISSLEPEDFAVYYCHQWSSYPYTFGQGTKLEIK . Reported EC50?
A: 1.13
